# System: GC3/MTK-
# assay.method.text: Inhibition of cellular growth by the MTT colorimetric assay in GC3/M TK-, a human thymidine kinase deficient adenocarcinoma line
Labelling field: enter t if recorded IC50 is less than 3 µM. Enter f if it equals or exceeds that cut-off.

* CC(=O)c1cccc2c(N(C)Cc3ccc(S(=O)(=O)c4ccc(N)cc4)cc3)ccc(N)c12 | f
* O=C1Nc2ccc(N(CCO)Cc3ccc(S(=O)(=O)N4CCNCC4)cc3)c3cccc1c23 | f
* CN(Cc1ccc(S(=O)(=O)N2CCOCC2)cc1)c1ccc2c3c(ccc(Cl)c13)C(N)=N2 | t
* CCN(Cc1ccc(S(=O)(=O)c2ccccc2)cc1)c1ccc2c3c(cccc13)C(=O)N2 | f
* Cc1ccc2c3c(ccc(N(C)Cc4ccc(S(=O)(=O)c5ccc([N+](=O)[O-])cc5)cc4)c13)NC2=O | f
* Cc1ccc2c3c(ccc(N(C)Cc4ccc(S(=O)(=O)c5ccccc5)cc4)c13)N=C2N | t
* CNC1=Nc2ccc(N(C)Cc3ccc(S(=O)(=O)N4CCOCC4)cc3)c3c(C)ccc1c23 | t
* CN(Cc1ccc(S(=O)(=O)c2ccccc2)cc1)c1ccc2c3c(cccc13)C(NN)=N2 | f
* CN(Cc1ccc(S(=O)(=O)c2ccccc2)cc1)c1ccc2c3c(cccc13)C(NO)=N2 | f
* CN(Cc1ccc(S(=O)(=O)c2ccc(O)cc2)cc1)c1ccc2c3c(cccc13)C(=O)N2 | f
* Cc1ccc2c3c(ccc(NCc4ccc(S(=O)(=O)c5ccccc5)cc4)c13)NC2=O | f
* CNC1=Nc2ccc(N(C)Cc3ccc(S(=O)(=O)c4ccccc4)cc3)c3cccc1c23 | f
* Cc1ccc2c3c(ccc(N(C)Cc4ccc(S(=O)(=O)c5ccccc5)cc4)c13)NC2=O | f
* CSc1ccc2c3c(ccc(N(C)Cc4ccc(S(=O)(=O)N5CCOCC5)cc4)c13)N=C2N | f
* CCCN(Cc1ccc(S(=O)(=O)N2CCNCC2)cc1)c1ccc2c3c(cccc13)C(=O)N2 | f
* Cc1ccc2c3c(ccc(N(C)Cc4ccc(S(=O)(=O)c5ccc([N+](=O)[O-])cc5)cc4)c13)N=C2N | t
* CSC1Nc2ccc(N(C)Cc3ccc(S(=O)(=O)c4ccc(O)cc4)cc3)c3cccc1c23 (stereo not drawn) | f
